Record type: EC50 measurement. Applies to: Metabotropic glutamate receptor 5 (Rattus norvegicus, UniProt P31424)
Quick note: give the figure in µM, leave out the unit.

So the reported EC50 for N[C@@H](CCS(=O)O)C(=O)O [L-homocysteine sulfinic acid] , on Metabotropic glutamate receptor 5 (Rattus norvegicus, UniProt P31424), turned out to be 5.75

So the reported EC50 for N[C@@H](CCS(=O)(=O)O)C(=O)O [L-homocysteic acid] , on Metabotropic glutamate receptor 5 (Rattus norvegicus, UniProt P31424), turned out to be 6.31

###

Listing of recorded pKi by entry.
target: Beta-2 adrenergic receptor (Rattus norvegicus)
Sequence (P10608 whole entry): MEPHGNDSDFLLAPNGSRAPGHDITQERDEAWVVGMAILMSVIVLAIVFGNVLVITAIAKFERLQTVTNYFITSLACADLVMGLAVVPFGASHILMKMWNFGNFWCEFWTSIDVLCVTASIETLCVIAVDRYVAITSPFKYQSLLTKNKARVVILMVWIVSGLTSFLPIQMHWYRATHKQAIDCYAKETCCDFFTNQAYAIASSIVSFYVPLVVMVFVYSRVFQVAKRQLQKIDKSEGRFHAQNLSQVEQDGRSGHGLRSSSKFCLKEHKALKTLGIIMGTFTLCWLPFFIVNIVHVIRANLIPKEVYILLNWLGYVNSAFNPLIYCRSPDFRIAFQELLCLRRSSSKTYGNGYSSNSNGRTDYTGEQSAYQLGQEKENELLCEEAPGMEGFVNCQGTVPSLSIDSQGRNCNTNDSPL
pKi: −log10 of the molar value.

Please review the entries below; each comes with its answer.
NC(CS(=O)O)C(=O)O (stereo unspecified) | < 5.00
N[C@@H](CCS(=O)(=O)O)C(=O)O (racemic) | < 5.00
N[C@@H]1CCSC1=O | < 5.00
N[C@H](CCS(=O)(=O)O)C(=O)O | < 5.00

pKi reported for this molecule N[C@@H](CCS)C(=O)O (racemic) : < 5.00

pKi reported for this molecule N[C@@H](CS)C(=O)O : < 5.00

###

Listing of recorded Ki by entry.
Target: Muscarinic acetylcholine receptor M1 (Homo sapiens, UniProt P11229)
Sequence (P11229 whole entry): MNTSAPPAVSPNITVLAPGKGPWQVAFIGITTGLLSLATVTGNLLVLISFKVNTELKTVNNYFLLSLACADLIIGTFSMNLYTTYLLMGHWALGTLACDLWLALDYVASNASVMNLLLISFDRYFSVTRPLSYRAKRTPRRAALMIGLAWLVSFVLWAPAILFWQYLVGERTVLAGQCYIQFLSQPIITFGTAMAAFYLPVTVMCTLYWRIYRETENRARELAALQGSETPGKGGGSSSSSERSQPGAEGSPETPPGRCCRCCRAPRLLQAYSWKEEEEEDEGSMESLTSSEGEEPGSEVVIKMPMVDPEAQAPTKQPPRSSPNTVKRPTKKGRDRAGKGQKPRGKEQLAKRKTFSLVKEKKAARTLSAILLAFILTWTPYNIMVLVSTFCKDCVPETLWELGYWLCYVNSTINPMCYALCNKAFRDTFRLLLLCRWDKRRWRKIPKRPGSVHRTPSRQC

Please review the entries below; each comes with its answer.
N[C@H]1CCSC1=O [NSC_134505] | > 10 µM
N[C@@H](CCS(=O)(=O)O)C(=O)O (racemic) | > 10 µM
N[C@H](CCS(=O)(=O)O)C(=O)O [D-homocysteic acid] | > 10 µM
N[C@H](CS(=O)(=O)O)C(=O)O [L-cysteic acid] | > 10 µM
N[C@@H]1CCSC1=O [D-homocysteine thiolactone] | > 10 µM

So the reported Ki for N[C@@H](CCS(=O)O)C(=O)O [L-homocysteine sulfinic acid] , on Muscarinic acetylcholine receptor M1 (Homo sapiens, UniProt P11229), turned out to be > 10 µM

So the reported Ki for N[C@H](CCS(=O)O)C(=O)O [D-homocysteine sulfinic acid] , on Muscarinic acetylcholine receptor M1 (Homo sapiens, UniProt P11229), turned out to be > 10 µM

Source listed as BindingDB's records for doi:10.1124/jpet.102.047092.
